# measurementTarget: human ASK1 (Homo sapiens (Human), UniProt Q99683)
# Sequence (Q99683 whole entry): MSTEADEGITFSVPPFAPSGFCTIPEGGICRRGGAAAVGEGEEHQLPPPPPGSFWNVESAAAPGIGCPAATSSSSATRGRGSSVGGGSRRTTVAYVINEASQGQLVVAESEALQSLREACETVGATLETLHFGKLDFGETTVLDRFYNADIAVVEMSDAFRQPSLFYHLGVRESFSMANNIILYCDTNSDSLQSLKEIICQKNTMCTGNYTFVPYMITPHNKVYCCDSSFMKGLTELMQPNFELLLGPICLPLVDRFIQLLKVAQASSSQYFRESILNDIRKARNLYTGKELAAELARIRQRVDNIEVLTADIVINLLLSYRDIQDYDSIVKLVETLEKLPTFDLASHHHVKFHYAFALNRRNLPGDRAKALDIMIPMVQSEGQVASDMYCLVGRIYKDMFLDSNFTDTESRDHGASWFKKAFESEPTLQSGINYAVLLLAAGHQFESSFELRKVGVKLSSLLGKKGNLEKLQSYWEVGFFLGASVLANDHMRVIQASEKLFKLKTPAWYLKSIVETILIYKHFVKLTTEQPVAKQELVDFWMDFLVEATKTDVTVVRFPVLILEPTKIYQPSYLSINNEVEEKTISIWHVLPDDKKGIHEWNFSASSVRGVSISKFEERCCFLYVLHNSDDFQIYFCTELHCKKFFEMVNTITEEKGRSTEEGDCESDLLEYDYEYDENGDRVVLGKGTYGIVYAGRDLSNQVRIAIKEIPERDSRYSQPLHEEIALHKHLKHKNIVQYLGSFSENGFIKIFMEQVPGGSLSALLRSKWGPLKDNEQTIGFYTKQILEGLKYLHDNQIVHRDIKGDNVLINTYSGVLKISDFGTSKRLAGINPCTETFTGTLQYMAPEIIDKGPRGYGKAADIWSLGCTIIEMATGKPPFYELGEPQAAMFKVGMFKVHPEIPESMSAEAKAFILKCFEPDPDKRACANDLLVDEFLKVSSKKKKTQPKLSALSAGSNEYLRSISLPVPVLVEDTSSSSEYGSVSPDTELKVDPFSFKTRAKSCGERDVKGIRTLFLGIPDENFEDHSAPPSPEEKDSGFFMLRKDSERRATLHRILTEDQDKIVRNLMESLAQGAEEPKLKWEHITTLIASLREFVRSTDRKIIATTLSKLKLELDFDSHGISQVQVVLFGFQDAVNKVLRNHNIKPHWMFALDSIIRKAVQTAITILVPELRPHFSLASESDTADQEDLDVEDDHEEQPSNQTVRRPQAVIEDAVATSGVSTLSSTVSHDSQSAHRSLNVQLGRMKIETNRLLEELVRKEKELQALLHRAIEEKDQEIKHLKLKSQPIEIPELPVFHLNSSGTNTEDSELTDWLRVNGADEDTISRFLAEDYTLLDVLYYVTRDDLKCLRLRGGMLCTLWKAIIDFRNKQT
# protocolText: ASK1 autophosphorylation (Thr838) assay in HEK293 cells overexpressing human ASK1
# experimentalContext: H2O2-stimulated (1 mM, 10 min) ASK1 autophosphorylation at Thr838, HEK293 cells; HTRF; mean ± standard deviation; read-out: HEK pASK1 IC50
Quick reference for IC50 among some compounds
measuredParameter: IC50 (nM)

compound | measuredParameter | reported
CC(C)n1cnnc1-c1cccc(N2CCN(C3CC(n4cnc(C5CC5)c4)C3)C2=O)n1 (single isomer, unassigned) | IC50 | 48.8
CC(C)n1cc(C2CC(N3CCN(c4cccc(-c5nncn5C(C)C)n4)C3=O)C2)cn1 (centres unmarked) | IC50 | 27.1
Cc1ccc(C2CC(N3CCN(c4cccc(-c5nncn5C(C)C)n4)C3=O)C2)cn1 (single isomer, unassigned) | IC50 | 235
CC(C)n1cnnc1-c1cccc(N2CCN(C3CC(n4cnc(C5CC5)n4)C3)C2=O)n1 (centres unmarked) | IC50 | 108
CC(C)n1cnnc1-c1cccc(N2CCN(C3CC(n4cnc(C(F)(F)F)c4)C3)C2=O)n1 (centres unmarked) | IC50 | 126
